system: ACHN; assay: NCI tumour cell line growth inhibition, 48 h
The source made the active and inactive calls. Cut-off read from the data, not from the text of the source: active = GI50 up to about 1.1 µM and inactive = higher.
Reply using exactly one outcome from 1.0 = active, 0.0 = inactive

Task: Each compound tested received a call. Report the one for CC(=O)Oc1ccc(C2SCc3nc4ccccc4n32)cc1 (configuration not stated) .
Result: 0.0

Task: Follow-up entry: CC(=O)NC(CCCNC(=O)OCc1ccccc1)C(=O)O (configuration not stated)
Result: 0.0

* * *

tested on: HCT-116; assay: NCI tumour cell line growth inhibition, 48 h
Active and inactive are the calls of the source. Rule as the data show it: active = GI50 up to about 1.1 µM and inactive = higher.
Reply using exactly one outcome from 1 = active, -1 = inactive

See these solved cases before continuing.
Task: Each compound tested received a call. Report the one for COC(=O)C(CC12CC3CC(CC(C3)C1)C2)NC(=O)C(N)CC(=O)O (configuration not stated) .
Result: -1

Task: Follow-up entry: CCc1cc2c(Nc3ccccc3)c3c(nc2s1)CCCC3
Result: -1

Task: Follow-up entry: CC(C(=O)O)C1Nc2ccccc2NC1=O (configuration not stated)
Result: -1

Task: Follow-up entry: COc1ccc(OC)c2c1C(=O)C(Cl)=C(N1CCN(CCOCCO)CC1)C2=O
Result: -1

Task: Follow-up entry: CCCN1C(=O)CNC(=O)c2[nH]cnc21
Result: -1

Others:
Task: Each compound tested received a call. Report the one for Cn1cnc(S[C@H]2[C@H]3C(=O)C=C4S[C@H]5C[C@]42C2=C(N5)C(=O)c4[nH]cc5c4C2=[N+]3CC5)c1C[C@H](N)C(=O)O .
Result: -1

Task: Follow-up entry: COc1cc(CN2CCCCC2)cc2cc(C(=O)O)c(=O)oc12
Result: -1
